system: BT-549; assay: NCI tumour cell line growth inhibition, 48 h
Activity calls are given as the source filed them. No stated cut-off is given here; in the data, active = GI50 up to about 1.1 µM and inactive = higher.
Would you mind answering with one of these outcomes? active, inactive

Field: outcome | Entry: ClCC[N+]12CC[N+](CCCl)(CC1)C2
inactive

Field: outcome | Entry: c1ccc2c3c([nH]c2c1)C1c2[nH]c4ccccc4c2CCN1CC3
inactive

Field: outcome | Entry: Cc1nc2nnc(CCCCCCCCc3nnc4nc(C)[nH]n34)n2[nH]1
inactive

Field: outcome | Entry: Oc1ccccc1/C=N/c1ccc(-c2nc3ccccc3s2)cc1
inactive

Field: outcome | Entry: O=P(O)(Cc1ccccc1)c1ccccc1-c1ccccc1
inactive

Field: outcome | Entry: Cc1cc(N(CCC#N)CCC#N)ccc1/C=C1\SC(=S)NC1=O
inactive

Field: outcome | Entry: c1ccc2c(c1)/C(=N\NC1=NCCN1)c1nc3ccccc3nc1-2
inactive

Field: outcome | Entry: S=C(N1CCN(c2ccccc2)CC1)N1CCN(c2ccccc2)CC1
inactive

Field: outcome | Entry: O=C1c2ccccc2S(=O)(=O)c2ccccc21
inactive

Field: outcome | Entry: CN(C)c1ccc(C=c2c3ccccc3n3c2c2ccccc2[n+]3C)cc1
active

Field: outcome | Entry: COc1ccc(OC)c(C2CCc3nc4nc(N)nc(N)c4cc3C2)c1 (configuration not stated)
inactive

Field: outcome | Entry: CC1CN1C(=O)NCCCCCCNC(=O)N1CC1C (configuration not stated)
inactive

Field: outcome | Entry: CCSC(=O)N1c2ccc(OC)cc2C=CC1C#N (configuration not stated)
active

Field: outcome | Entry: N#Cc1ccc(Oc2nc3ccc(C(F)(F)F)cc3nc2-c2ccccc2)cc1
inactive

Field: outcome | Entry: O=C(O)CNCP(=O)(O)O [GLYPHOSATE]
inactive

Field: outcome | Entry: CCc1c(O)cc(=O)oc1-c1ccc(OC)c(OC)c1
inactive

Field: outcome | Entry: CN(C)CCNc1ccc(CO)c2sc3ccc(O)cc3c(=O)c12
inactive

---

Target or system HCT-15: recorded GI50 listed per item.
Where a SMILES comes first, the peptide text is derived from it. The star is where a group is joined. Boc = CC(C)(C)OC(=O)*

# compound CNC(=S)N(C)C(=S)Nn1c(=O)c(C)nn(C)c1=S ; its GI50 = > 100 µM

# compound O=C(N/N=C/c1ccc(O)cc1)NNCCO ; its GI50 = > 100 µM

# compound Oc1ccc(N=C2CCC(=C(c3ccccc3)c3ccc(Nc4ccc(O)cc4)cc3)CC2)cc1 ; its GI50 = > 100 µM

# compound CN(C)CCCNc1c2ccccc2nc2cccc([N+](=O)[O-])c12 ; its GI50 = < 0.001 µM

# compound CCCC1CCC(=C2C(=O)CCC2=O)O1 (stereo not given) ; its GI50 = > 100 µM

# compound O=C1c2ccccc2-c2nnc(-c3ccc(Cl)cc3)cc21 ; its GI50 = > 10 µM

# compound CCOC(=O)NC(=O)c1cn(CCCCCCOC(=O)NCCCCCCNC(=O)OCCCCCCn2cc(C(=O)NC(=O)OCC)c(=O)[nH]c2=O)c(=O)[nH]c1=O ; its GI50 = > 100 µM

# compound Cc1cccc(-c2cc(=S)c3cc(N4CCCC4)ccc3[nH]2)c1 ; its GI50 = > 100 µM

# compound CC(NC(=O)C1CCCN1C(=O)CNC(=O)OC(C)(C)C)C(=O)O (stereo not drawn) (Boc-Gly-Pro-Ala-OH; configuration not given here) ; its GI50 = > 100 µM

# compound Cc1cc(C)nc(Nc2nc3cc([N+](=O)[O-])ccc3[nH]2)n1 ; its GI50 = > 100 µM

# compound CCN1C(=O)N2C(OC)c3ccccc3C(Br)C2(OC)C1=O (stereo not given) ; its GI50 = > 100 µM

# compound CCOC(=O)C(=[N+]=[N-])C(=O)CSC#N ; its GI50 = 51.4 µM

# compound O=C(C1OC1c1ccc([N+](=O)[O-])cc1)C12CC3CC(CC(C3)C1)C2 (stereo not given) ; its GI50 = 13.2 µM

# compound CC(C)(C)OC(=O)CN1CCNCCN(CC(=O)OC(C)(C)C)CCNCC1 ; its GI50 = > 100 µM

# compound CCOC(=O)[C@@]12C(C)=CC(=O)O[C@]1(C)C[C@H]2C#N ; its GI50 = > 100 µM

# compound CC(=O)OC1COC(N2C(=O)C(=O)c3c(C)cc(Cl)nc32)C(OC(C)=O)C1OC(C)=O (stereo not given) ; its GI50 = > 100 µM

# compound O=C(O)c1cnc2cc(OCc3ccccc3)ccc2c1O ; its GI50 = 17.8 µM

# compound C1CN(c2nc3c(nnc4nc(N5CCOCC5)sc43)s2)CCO1 ; its GI50 = > 100 µM

# compound Cc1ccc(-c2c(C#N)c(O)n(NS(=O)(=O)c3ccccc3)c(=O)c2C#N)cc1 ; its GI50 = > 100 µM

# compound O=C1N=C(c2ccccc2)OC1C(=O)c1ccccc1 (stereo not given) ; its GI50 = > 100 µM

# compound CC1(C)CC(=O)C(=CNC(=O)c2ccncc2)C(=O)C1 ; its GI50 = > 100 µM

# compound Cc1ccc([N+](=O)[O-])cc1S(=O)(=O)Nc1ccc(C2=NOC(c3ccccc3)C2)cc1 (stereo not given) ; its GI50 = 4.11 µM

# compound O=C(OCc1ccccc1)C(Cc1ccc(OCc2ccccc2)cn1)NC(=O)C(F)(F)F (stereo not given) ; its GI50 = 46.3 µM

# compound ClCC[N+]12CC[N+](CCCl)(CC1)C2 ; its GI50 = > 100 µM

# compound O=C1C(c2ccccc2)=C(c2ccccc2)C(c2ccc(-c3ccc(C4=C(c5ccccc5)C(=O)C(c5ccccc5)=C4c4ccccc4)cc3)cc2)=C1c1ccccc1 ; its GI50 = > 100 µM

---

test system: MDA-N; assay: NCI tumour cell line growth inhibition, 48 h
Active and inactive are the calls of the source. No stated cut-off is given here; in the data, active = GI50 up to about 1.1 µM and inactive = higher.
property measured: GI50

# molecule [N-]=[N+]=NC[C@H]1OCO[C@H](CN=[N+]=[N-])[C@H]2OCCOCCOc3ccccc3OCCOCCO[C@@H]21 ; its GI50 = > 100 µM (inactive)

# molecule OCCNCNc1nc(NCNCCO)nc(N(CNCCO)CNCCO)n1 ; its GI50 = 19.2 µM (inactive)

# molecule CC(C)(C)c1cc(CC2C(=O)c3ccccc3C2=O)cc(C(C)(C)C)c1O ; its GI50 = 7.5 µM (inactive)

# molecule O=C1c2ccccc2-c2nc3ccc(O)cc3n21 ; its GI50 = > 100 µM (inactive)

---

system: LOX IMVI; assay: NCI tumour cell line growth inhibition, 48 h
Calls of active or inactive are those of the source. Rule as the data show it: active = GI50 up to about 1.1 µM and inactive = higher.
Would you mind answering with one of these outcomes? yes (1) (active), no (0) (inactive)

Field: outcome | Entry: COc1ccc2c3c([nH]c2c1)[C@H]1C[C@H]2[C@H](C[C@@H](O)[C@H](OC)[C@H]2C(=O)O)CN1CC3
no (0)

Field: outcome | Entry: O=S(=O)(SC1=NCCN1)c1cccc2ccccc12
no (0)

Field: outcome | Entry: COc1cc(NP(=O)(Oc2ccccc2)Oc2ccccc2)ccc1Nc1c2ccccc2nc2c1[nH]c1ccccc12
yes (1)

Field: outcome | Entry: CC1CCC2(CC1)NN=c1s/c(=C\c3ccc(O)cc3)c(=O)n1N2 (stereo not drawn)
no (0)

Field: outcome | Entry: O=C1/C(=C/c2ccccc2)CN(C(=O)OCc2ccccc2)C/C1=C\c1ccccc1
no (0)

Field: outcome | Entry: CC(C)[Si]1(C(C)C)OCC2OC(N3C(=O)NC(=O)C[C@@H]3C(O)c3ccccc3)CC2O[Si](C(C)C)(C(C)C)O1 (stereo partly drawn)
no (0)

Field: outcome | Entry: Cc1ccc(NC(=O)SCCC(=O)O)cc1
no (0)

Field: outcome | Entry: Cc1ccc(S(=O)(=O)N(CCN)c2cc3c4c(c2)Oc2cccc5c2C4c2c(cccc2O3)O5)cc1
no (0)

Field: outcome | Entry: Cc1cccc(NC(=O)C(=O)Cc2nc3ccccc3nc2O)c1C
no (0)

Field: outcome | Entry: COc1ccc(C2Oc3ccc(O)cc3[C@@H]2C)cc1OC (stereo partly drawn)
no (0)

Field: outcome | Entry: Cc1nc(C)c(C(=O)NNC(=O)c2ccccc2)cc1C(=O)NNC(=O)c1ccccc1
no (0)

Field: outcome | Entry: COc1ccc(-c2oc3cc(OC)ccc3c(=O)c2O)cc1
no (0)

Field: outcome | Entry: COc1ccc(S(=O)(=O)N/N=C/CN2C(=O)c3ccccc3C2=O)cc1OC
no (0)

---

system: KM12; experiment: NCI tumour cell line growth inhibition, 48 h
Calls of active or inactive are those of the source. Cut-off read from the data, not from the text of the source: active = GI50 up to about 1.1 µM and inactive = higher.
Assignment: determine reported GI50 for the given compounds.

# compound C/C(=N\NS(=O)(=O)c1ccc([N+](=O)[O-])cc1)c1ccc[n+]([O-])n1 ; its GI50 = 2.39 µM (inactive)

# compound C#CCNC(CS)C(=O)O (stereo not given) ; its GI50 = > 100 µM (inactive)

# compound O=C(Nc1ccccc1-c1n[nH]c(S)nc1=O)C(F)(F)F ; its GI50 = > 100 µM (inactive)

# compound COc1cc(Br)c(CC2NCCc3cc(OC)c(OC)cc32)cc1OC (stereo not given) ; its GI50 = 73.6 µM (inactive)

# compound O=NN1C(c2ccccc2)C2CCCC(C2=O)C1c1ccccc1 (stereo not given) ; its GI50 = 32.5 µM (inactive)

# compound C[C@@H](Br)[C@@H]1CC[C@H]2c3[nH]c4ccccc4c3CCN2C1 ; its GI50 = 14.5 µM (inactive)

# compound Cn1c2ccccc2n2c(=O)c3cc([N+](=O)[O-])ccc3c(C#N)c12 ; its GI50 = > 100 µM (inactive)

# compound C[C@]12CCC(=O)C=C1CC[C@@H]1C2CC[C@]2(C)Nc3[nH]ncc3CC12 (stereo not given in full) ; its GI50 = > 100 µM (inactive)

# compound O=[N+]([O-])c1ccc(C2CC(c3ccc(NCc4nc5ccccc5[nH]4)cc3)=NO2)cc1 (stereo not given) ; its GI50 = 21.1 µM (inactive)

# compound O=C1c2ccccc2-c2nc3ccc(O)cc3n21 ; its GI50 = > 100 µM (inactive)

# compound CSc1ccc(-c2cc(-c3nc4ccccc4[nH]3)no2)cc1 ; its GI50 = 9.91 µM (inactive)

# compound CCN(CC)C(=S)SNCCc1ccc(S(N)(=O)=O)cc1 ; its GI50 = 16.6 µM (inactive)

# compound O=C1/C(=C/c2cccc([N+](=O)[O-])c2)N=C(c2ccccc2)N1c1nc2ccc(Sc3ccccc3)cc2[nH]1 ; its GI50 = 31.8 µM (inactive)

# compound O=S(=O)(c1ccccc1)C1CN2OC1(S(=O)(=O)c1ccccc1)CC2c1ccc(Br)cc1 (stereo not given) ; its GI50 = > 100 µM (inactive)

# compound COC(=O)C1=C(CCC[C@H](C)O[Si](C)(C)C(C)(C)C)NC(=O)N2[C@@H](CCO)CC[C@H]12 ; its GI50 = 18.3 µM (inactive)

# compound CCC(C)[C@@H](NC1=C(Cl)C(=O)c2c(O)ccc(O)c2C1=O)C(=O)OC (stereo not given in full) ; its GI50 = 3.92 µM (inactive)

# compound O=C(/C=C/c1csc(-c2ccccc2)n1)NCc1ccc(C(=O)NCc2ccccc2)cc1 ; its GI50 = > 100 µM (inactive)

# compound CC(C)=CC1CC(=[N+]=[N-])C(=O)C1(C)C (stereo not given) ; its GI50 = > 100 µM (inactive)

# compound O=P(O)(Cc1ccccc1)c1ccccc1-c1ccccc1 ; its GI50 = 77.3 µM (inactive)

# compound COC(=O)/C(C)=C/[N+](=O)[O-] ; its GI50 = 18.5 µM (inactive)
